The origin of these recorded values is paper PMC5540273.

Test system: MLK2
Settings: concentration: 1 μM,replicates: in singlicate; n = 1;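 note: KINOMEscan kinase panel screen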
%Inh under 20% gets satisfied, anything at or over 20% gets not satisfied.

Example entries begin here.
{"MOLECULE": "Cn1cc(-c2cccc3c(N)c(C(N)=O)nnc23)cn1", "ASSAYED TARGET": "MLK2", "ASSIGNED LABEL": "satisfied"}
{"MOLECULE": "CN1CCN(CCCNc2nccc(-c3c(-c4ccc(F)cc4)nn4cc(C(N)=O)ccc34)n2)CC1 [GW622475]", "ASSAYED TARGET": "MLK2", "ASSIGNED LABEL": "satisfied"}
{"MOLECULE": "CCn1c(-c2nonc2N)nc2cncc(CNC3CCNCC3)c21.Cl [SB-747651]", "ASSAYED TARGET": "MLK2", "ASSIGNED LABEL": "satisfied"}
{"MOLECULE": "COC(=O)Nc1nc2cc(Oc3ccc(NC(=O)Nc4cc(C(F)(F)F)ccc4Cl)cc3)ccc2[nH]1.Cl [GW697465]", "ASSAYED TARGET": "MLK2", "ASSIGNED LABEL": "satisfied"}
{"MOLECULE": "Cn1ccc2ncnc(Oc3ccc(NC(=O)Nc4cccc(C(F)(F)F)c4)c(Cl)c3)c21", "ASSAYED TARGET": "MLK2", "ASSIGNED LABEL": "satisfied"}
{"MOLECULE": "C[C@@H](Oc1cc(-n2cnc3ccc(-c4ccncc4)cc32)sc1C(N)=O)c1ccccc1Cl [GSK483724]", "ASSAYED TARGET": "MLK2", "ASSIGNED LABEL": "not satisfied"}
{"MOLECULE": "CSc1nccc(-c2c(-c3ccc(F)cc3)ncn2CCCN2CCOCC2)n1.Cl [SB-217146]", "ASSAYED TARGET": "MLK2", "ASSIGNED LABEL": "not satisfied"}

Consider the record given below.
For this molecule, is %Inh lower than 20%? O=C(NOCC1CC1)c1cc(Br)c(F)c(F)c1Nc1ccc(I)cc1Cl
satisfied

* * *

System: BUB1
Details: concentration: 1 μM,replicates: in singlicate; n = 1
%Inh strictly under 30% means true (1); at 30% or over means false (0).

{"MOLECULE": "Cn1ccc2ncnc(Oc3ccc(NC(=O)Nc4cncc(C(F)(F)F)c4)c(Cl)c3)c21", "ASSIGNED LABEL": "true (1)"}

Here's the next entry for you.
Given c1ccc(Oc2ccc(Nc3ccnc4ccc(-c5ccccn5)cc34)cc2)cc1 , is recorded %Inh strictly lower than 30%?
true (1)

* * *

Tested on: ZAK
Details: concentration: 1 μM,replicates: in singlicate; n = 1
# %Inh values compiled below
# value in %; strip the unit string

{"COMPOUND": "Cn1ccc2ncnc(Oc3ccc(NC(=O)Nc4cccc(C(F)(F)F)c4)c(Cl)c3)c21", "UNIT ABBREV": "%", "%Inh": 14}
{"COMPOUND": "Cc1ccc(C(=O)Nc2ccc(Oc3ccc4nc(NC(=O)C5CC5)cn4c3)c(F)c2)c(=O)n1-c1ccccc1", "UNIT ABBREV": "%", "%Inh": 96.1}
{"COMPOUND": "Cc1ccc2c(-c3ccnc(Nc4ccc(C(F)(F)F)cc4)n3)cnn2n1 [GW819776]", "UNIT ABBREV": "%", "%Inh": 0}
{"COMPOUND": "C[C@@H]1CNc2c(sc3ccc4nc(-c5ccncc5)ccc4c23)C(=O)N1", "UNIT ABBREV": "%", "%Inh": 0}
{"COMPOUND": "COC(=O)c1cccc(NC(=O)NC2CCN(c3ccnc(Nc4cc(OC)c(OC)c(OC)c4)n3)C2)c1 (centres unmarked) [GSK1379767]", "UNIT ABBREV": "%", "%Inh": 3}
{"COMPOUND": "CC(=O)Nc1ccc(-c2cc3ncnc(SCC(=O)O)c3s2)cc1", "UNIT ABBREV": "%", "%Inh": 40}
{"COMPOUND": "CSc1nccc(-c2c(-c3ccc(F)cc3)ncn2CCCN2CCOCC2)n1.Cl [SB-217146]", "UNIT ABBREV": "%", "%Inh": 0}

Now for a further compound.
For the compound c1ccc(Oc2ccc(Nc3ccnc4ccc(-c5ccccn5)cc34)cc2)cc1 [GW407034] , report %Inh.
53

* * *

System: PRKX
Details: concentration: 1 μM,replicates: in singlicate; n = 1
Kindly return YES if reported %Inh is no lower than 3%; return NO if it is lower.

Field: example entries. Status: answers known.
{"MOLECULE": "COc1cccc(C2=C(Nc3cccc(Cl)c3)C(=O)NC2=O)c1", "ASSIGNED LABEL": "YES"}
{"MOLECULE": "Cl.Nc1n[nH]c2cc(-c3ccccn3)ccc12", "ASSIGNED LABEL": "YES"}
{"MOLECULE": "CC(=O)c1c(-c2ccncc2)[nH]c(-c2ccncc2)c1C", "ASSIGNED LABEL": "NO"}

Could you please find out whether COc1cccc(OC)c1C(=O)Nc1cccc(-c2nn3ccccc3c2-c2ccnc(Nc3cccc(F)c3)n2)c1 has %Inh that meets 3% or exceeds it?
NO

Is %Inh for CC(=O)Nc1ccc(-c2cc3ncnc(SCC(=O)O)c3s2)cc1 at or above 3%?
YES

Does the molecule C[C@@H]1CCN(C(=O)N2CCCC2)C[C@@H]1N(C)c1ncnc2[nH]ccc12 have recorded %Inh that is 3% or more?
NO

hey, is %Inh for this one >= 3%? Cc1ccc(CC(=O)N2CCc3cc(-c4cn(C)c5ncnc(N)c45)ccc32)cc1
YES

Dear colleague, could you confirm whether Cc1ccc2c(-c3ccnc(Nc4ccc(C(F)(F)F)cc4)n3)cnn2n1 has %Inh at or above 3%?
NO

Is reported %Inh greater than or equal to 3% here: COc1cccc(CNC(=O)NC2CCN(c3ccnc(Nc4cc(OC)c(OC)c(OC)c4)n3)C2)c1 (stereo not shown)
YES

Assess whether reported %Inh for CC(C)S(=O)(=O)N1CCN(Cc2ccc3c(c2)nc(NC(=O)c2ccsc2)n3C[C@H](O)c2ccccc2)CC1 sits at 3% or higher.
YES

Check if %Inh >= 3% (inclusive). Item: O=C(Nc1cccc(Oc2ccc3nccn3n2)c1)Nc1cccc(C(F)(F)F)c1
NO

Decide: is the reported value of %Inh for O=C(Nc1n[nH]c2cc(-c3ccco3)ccc12)C1CC1 equal to or greater than 3%?
NO

* * *

# %Inh annotations
Tested on: WEE2
Details: concentration: 1 μM,replicates: in singlicate; n = 1
Number in %, nothing else.

{"COMPOUND": "COC(=O)c1cccc(NC(=O)NC2CCN(c3ccnc(Nc4cc(OC)c(OC)c(OC)c4)n3)C2)c1 (centres unmarked)", "%Inh, %": 0}
{"COMPOUND": "COc1cc2nccc(Nc3ccc(Oc4ccccc4)cc3)c2cc1OC.Cl", "%Inh, %": 0}
{"COMPOUND": "O=C(NOCC1CC1)c1cc(Br)c(F)c(F)c1Nc1ccc(I)cc1Cl", "%Inh, %": 0}
{"COMPOUND": "CCOC(=O)N1CCC(n2cnc(-c3ccc(F)cc3)c2-c2ccnc(N)n2)CC1", "%Inh, %": 0}
{"COMPOUND": "COC(=O)Nc1nc2cc(Oc3ccc(NC(=O)Nc4cc(C(F)(F)F)ccc4Cl)cc3)ccc2[nH]1.Cl", "%Inh, %": 11}
{"COMPOUND": "COc1cc(Nc2nccc(N3CCC(NC(=O)c4cccc(C#N)c4)C3)n2)cc(OC)c1OC (centres unmarked)", "%Inh, %": 0}

Fill in %Inh for record Cn1ccc2ncnc(Oc3ccc(NC(=O)Nc4cnn(C(C)(C)C)c4)c(Cl)c3)c21
5

Indicate the recorded %Inh value for this compound: CN(c1ccccc1CNc1nc(Nc2ccc3c(c2)CC(=O)N3)ncc1C(F)(F)F)S(C)(=O)=O
0

* * *

Test system: EPHB3
Conditions: concentration: 1 μM,replicates: in singlicate; n = 1
READOUT KIND: %Inh (%)
Note: unit % is implicit; provide only the numeric part.

Below, each entry is followed by its recorded %Inh result.
{"STRUCTURE SMILES": "Cc1ccc(CC(=O)N2CCc3cc(-c4cn(C)c5ncnc(N)c45)ccc32)cc1", "%Inh (%)": 0}
{"STRUCTURE SMILES": "COc1cccc(C2=C(Nc3cccc(Cl)c3)C(=O)NC2=O)c1", "%Inh (%)": 17}
{"STRUCTURE SMILES": "O=C(NOCC1CC1)c1cc(Br)c(F)c(F)c1Nc1ccc(I)cc1Cl", "%Inh (%)": 0}
{"STRUCTURE SMILES": "O=c1[nH]cc(-c2ccc(O)cc2)c2sc(-c3ccncc3)cc12", "%Inh (%)": 15}
{"STRUCTURE SMILES": "Cc1ccn2nc(-c3ccc(F)cc3)c(-c3ccncc3)c2c1.Cl", "%Inh (%)": 2}
{"STRUCTURE SMILES": "COC(=O)Nc1nc2cc(Oc3ccc(NC(=O)Nc4cc(C(F)(F)F)ccc4Cl)cc3)ccc2[nH]1.Cl", "%Inh (%)": 10}
{"STRUCTURE SMILES": "CCn1c(-c2nonc2N)nc2cncc(Br)c21", "%Inh (%)": 0}
{"STRUCTURE SMILES": "CC(=O)c1c(-c2ccncc2)[nH]c(-c2ccncc2)c1C", "%Inh (%)": 3}

Consider the record given below.
Consider the molecule CCn1c(-c2nonc2N)nc2cncc(CNC3CCNCC3)c21.Cl . State its measured %Inh.
8
